target: SERT allosteric site (Homo sapiens, UniProt P31645, I291A/T439S); construct: GFP (C); Strep tag (purification tag); experiment: [3H]VLZ competition binding (SPA) in the presence of imipramine, allosteric site; settings: 800 nM [3H]VLZ and 800 nM imipramine, NaCl; read-out: Ki, competition with [3H]VLZ (affinity for the allosteric site)
Sequence (P31645 whole entry I291A/T439S): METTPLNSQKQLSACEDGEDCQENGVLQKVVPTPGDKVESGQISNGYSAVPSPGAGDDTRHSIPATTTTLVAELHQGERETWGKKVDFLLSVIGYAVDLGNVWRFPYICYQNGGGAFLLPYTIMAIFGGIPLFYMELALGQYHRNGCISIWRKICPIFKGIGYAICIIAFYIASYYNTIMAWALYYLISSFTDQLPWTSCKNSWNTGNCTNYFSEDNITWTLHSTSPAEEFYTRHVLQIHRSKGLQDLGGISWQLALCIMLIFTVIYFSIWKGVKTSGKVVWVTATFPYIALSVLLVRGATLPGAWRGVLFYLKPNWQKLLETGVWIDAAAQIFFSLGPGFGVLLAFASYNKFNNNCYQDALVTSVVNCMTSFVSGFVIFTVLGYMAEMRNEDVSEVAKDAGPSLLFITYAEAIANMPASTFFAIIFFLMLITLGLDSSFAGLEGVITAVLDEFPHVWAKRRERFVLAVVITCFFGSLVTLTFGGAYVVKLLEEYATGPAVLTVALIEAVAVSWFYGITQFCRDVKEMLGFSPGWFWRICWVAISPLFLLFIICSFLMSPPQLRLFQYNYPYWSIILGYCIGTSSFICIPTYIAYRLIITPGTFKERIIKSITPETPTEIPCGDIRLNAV
outcome_measure: pKi
Give bare numbers, as −log10 of the molar value.

[in] Look at this compound and give its reported pKi. Cl.Cn1cc(CCN)c2cc(O)ccc21
[out] 4.60

---

Field: Ki. Provide a value for each of the compounds that follow.
biological target: SERT (Homo sapiens, UniProt P31645); construct: N- and C-terminally truncated but otherwise wild-type (ΔN72, ΔC13); GFP (C); Strep tag (purification tag); experiment: biochemical; details: competition with [3H]paroxetine, SERT in nanodiscs, 100 mM NaCl, 20 nM [3H]paroxetine, n = 3 technical replicates
Sequence (P31645 73-617 limits assumed): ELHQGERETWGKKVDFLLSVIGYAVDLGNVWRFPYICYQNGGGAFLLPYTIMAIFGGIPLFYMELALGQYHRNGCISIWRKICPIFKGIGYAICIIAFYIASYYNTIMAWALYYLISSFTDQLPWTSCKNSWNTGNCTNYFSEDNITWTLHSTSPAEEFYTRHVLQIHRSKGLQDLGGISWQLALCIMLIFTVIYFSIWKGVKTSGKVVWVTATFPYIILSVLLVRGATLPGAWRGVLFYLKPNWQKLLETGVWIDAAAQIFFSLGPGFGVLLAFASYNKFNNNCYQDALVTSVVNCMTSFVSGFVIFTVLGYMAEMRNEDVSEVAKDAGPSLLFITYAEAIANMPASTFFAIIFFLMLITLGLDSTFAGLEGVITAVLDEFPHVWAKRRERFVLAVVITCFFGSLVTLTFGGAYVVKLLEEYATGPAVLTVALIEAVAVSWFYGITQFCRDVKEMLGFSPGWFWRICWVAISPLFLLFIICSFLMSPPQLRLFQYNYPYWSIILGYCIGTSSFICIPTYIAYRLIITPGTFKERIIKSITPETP
Give bare numbers, in µM.

The examples below pair each entry with its known result.
[[record]]
compound = "CNCCc1c[nH]c2ccc(OC)cc12 [5-methoxy-N-methyltryptamine]"
target_of_assay = "SERT (Homo sapiens, UniProt P31645)"
recorded_result = 3.9

[[record]]
compound = "CNCCc1c[nH]c2ccc(O)cc12 [N-ω-methyl-5-hydroxytryptamine]"
target_of_assay = "SERT (Homo sapiens, UniProt P31645)"
recorded_result = 2.8


# input for lookup
[in] So what's the measured Ki for this one? Cl.Cn1cc(CCN)c2cc(O)ccc21
[out] 5.4
